Tested on: SK-OV-3
Assay: NCI tumour cell line growth inhibition, 48 h
The source made the active and inactive calls. Cut-off read from the data, not from the text of the source: active = GI50 up to about 1.1 µM and inactive = higher. Where a SMILES comes first, the peptide text is derived from it. The star is where a group is joined. OSu = O=C1CCC(=O)N1O*; OBn = c1ccc(CO*)cc1; Bn = c1ccc(C*)cc1
Please answer using one outcome listed in 1 (active), 0 (inactive)

Known results for molecules:
{"molecule": "c1ccc(-c2cc(-c3ccccc3)nc(-c3ccncc3)c2)cc1", "system.name": "SK-OV-3", "category.label": 0}
{"molecule": "Cc1cc2ccccc2n1CC(=O)NCC(C)C", "system.name": "SK-OV-3", "category.label": 0}

Challenge: Hello, I am checking results. What call was entered for `COc1cc2c(cc1OC)-c1cc3cc(OC)c(OC)cc3c(C)[n+]1CC2.O=C([O-])CS(=O)(=O)O` ?
Response given: 0

Challenge: COc1ccc(/C=C2\CC3C4CC=C5C[C@@H](N6CCCC6)CC[C@]5(C)C4CC[C@]3(C)[C@H]2O)cc1OC (some centres undefined) ?
Response given: 0

Challenge: `CC(C)Oc1cc(O)c2c(c1)OCC=C2CCC(=O)O` ?
Response given: 0

Challenge: `O=C1C(=Cc2cccc(Cl)c2)N=C(c2ccccc2)N1n1c(-c2ccccc2)nc2ccccc2c1=O` ?
Response given: 0

Challenge: CC(C)CC(NC(=O)C(N)CCC(=O)OCc1ccccc1)C(=O)NC(COCc1ccccc1)C(=O)NC(Cc1ccccc1)C(=O)ON1C(=O)CCC1=O (centres undefined) (H-E(OBn)LS(Bn)F-OSu; configuration not given here) ?
Response given: 0

Challenge: `CNc1ncnc(Sc2nc(N)nc3[nH]cnc23)c1[N+](=O)[O-]` ?
Response given: 1

Challenge: `CCC(=O)Nc1ccc(NCC(=O)Nc2ccc(OC)cc2)cc1` ?
Response given: 0

Challenge: `Cc1nc2ccccc2c(=O)n1NC(=O)c1ccc([N+](=O)[O-])cc1` ?
Response given: 0

====

System: LOX IMVI
Test: NCI tumour cell line growth inhibition, 48 h
Activity calls are given as the source filed them. No stated cut-off is given here; in the data, active = GI50 up to about 1.1 µM and inactive = higher.
Please answer using one outcome listed in Yes = active, No = inactive

Known results for compounds:
{"compound": "O=C(c1cc2ccccc2o1)N(Cc1ccccc1)c1ccccc1", "category.label": "No"}
{"compound": "Cc1c2c(OCC3CCCCO3)nn(C)c(=O)c2c(C)n1-c1ccccc1 (stereo not given)", "category.label": "No"}
{"compound": "O=[N+]([O-])C(C=C(n1nnc2ccccc21)n1nnc2ccccc21)=C(n1nnc2ccccc21)n1nnc2ccccc21", "category.label": "No"}

Challenge: Hello, I am checking results. What call was entered for O=C(C1OC1c1ccc(O)cc1)C12CC3CC(CC(C3)C1)C2 (stereo not given) ?
Response given: No

Challenge: `Cc1cc2ccccc2n1CC(=O)NCC(C)C` ?
Response given: No

Challenge: CC(C)(C)c1cc(CCCCCCCC2(CCCCCCCc3cc(C(C)(C)C)cc(C(C)(C)C)c3)OC(COCCOCCCCCC#N)C(COCCOCCCCCC#N)O2)cc(C(C)(C)C)c1 (stereo not given) ?
Response given: No

Challenge: CCCC(=O)OC1CC(n2cc(F)c(=O)[nH]c2=O)OC1CO (stereo not given) ?
Response given: Yes

Challenge: C[Si](C)(C)/C=C/CN1C(=O)CCC1O (stereo not given) ?
Response given: No

Challenge: `C(=C/CCCN1O[C@@H](CCCCCCCCc2cccnc2)[C@H]2CCC[C@H]21)/CCCCCCCCCc1cccnc1` ?
Response given: No

Challenge: `CCc1cccc(C)c1NC(=O)CCc1nnc(S)[nH]1` ?
Response given: No

====

Recorded GI50 for the following molecules
Test system: MDA-MB-435
Assay: NCI tumour cell line growth inhibition, 48 h
The source made the active and inactive calls. Rule as the data show it: active = GI50 up to about 1.1 µM and inactive = higher.

{"molecule": "[N-]=[N+]=Nc1ccccc1-c1ccccc1[N+](=O)[O-]", "GI50": "32.3 µM (inactive)"}

# context switch: different molecule, same GI50
Challenge: For the molecule `Cc1coc2c1[C@@H](O)[C@@]1(C)[C@H](CCC[C@@H]1C)C2` , what GI50 is on record?
Response given: 15.1 µM (inactive)

====

System: SF-295
Test: NCI tumour cell line growth inhibition, 48 h
Active and inactive are the calls of the source. No stated cut-off is given here; in the data, active = GI50 up to about 1.1 µM and inactive = higher.
measurement.label: GI50

{"compound": "OC[C@H]1O[C@@H](n2cnc3c(S)ncnc32)[C@H](O)[C@@H]1O", "GI50": "> 2500 µM (inactive)"}
{"compound": "Cc1nnc(N/N=C2\\C(=O)Nc3ccccc32)n1N", "GI50": "> 100 µM (inactive)"}

Challenge: For the compound `O=C(O)CCN1CCN(CCC(=O)O)CCN(CCC(=O)O)CC1` , what GI50 is on record?
Response given: > 100 µM (inactive)

Challenge: `CC(C)(C)C(=O)Nc1c(C=O)ccc2[nH]cnc12` ?
Response given: > 100 µM (inactive)

Challenge: `Cc1ccc(C(=O)N2CCCCC2)cc1/N=N/N(C)C` ?
Response given: > 100 µM (inactive)

Challenge: O=C(O)C(Cc1c[nH]c2ccccc12)N1C(=O)c2ccccc2C1=O (stereo unspecified) ?
Response given: > 100 µM (inactive)

====

System: SNB-75
Test: NCI tumour cell line growth inhibition, 48 h
The source made the active and inactive calls. No stated cut-off is given here; in the data, active = GI50 up to about 1.1 µM and inactive = higher.
Please answer using one outcome listed in active, inactive

Known results for compounds:
{"compound": "Cc1ccc(S(=O)(=O)N2CCNCCN(S(=O)(=O)c3ccc(C)cc3)CCN(S(=O)(=O)c3ccc(C)cc3)CC2)cc1", "category.label": "inactive"}
{"compound": "CC1OC(n2ccc(=O)[nH]c2=O)C=C(OC(=O)c2ccccc2)C1=O (configuration not stated)", "category.label": "inactive"}
{"compound": "CCOP(=O)(OCC)C(c1ccc(F)cc1)N(C(=O)NC(F)(F)F)c1cccc(C(F)(F)F)c1 (configuration not stated)", "category.label": "inactive"}

Challenge: Hello, I am checking results. What call was entered for `C[n+]1c2ccccc2c(C(=O)Nc2ccc(S(=O)(=O)Nc3ccnn3-c3ccccc3)cc2)c2ccccc21` ?
Response given: inactive

Challenge: `CN1CCc2c1nc(-c1ccc([N+](=O)[O-])cc1)c1c2N(C)CC1` ?
Response given: inactive

Challenge: `Cc1cc2c(c(C(=O)NCC(=O)N[C@@H](C)C(=O)OCc3ccccc3)c1)Oc1c(cc(C)cc1C(=O)NCC(=O)N[C@@H](C)C(=O)OCc1ccccc1)S2` ?
Response given: inactive

Challenge: `COc1cc(C(=O)Oc2c(C#N)sc3c2c(=O)n(-c2ccccc2)c(=S)n3-c2ccccc2)cc(OC)c1OC` ?
Response given: inactive

Challenge: `O=C(C[n+]1ccccc1)NNC(=O)/C(=C/c1ccc2c(c1)OCO2)NC(=O)c1ccccc1` ?
Response given: inactive

====

Recorded GI50 for the following compounds
System: A549
Test: NCI tumour cell line growth inhibition, 48 h
Activity calls are given as the source filed them. Cut-off read from the data, not from the text of the source: active = GI50 up to about 1.1 µM and inactive = higher. Starred links: 1 amine or outer side, 2 acyl side, 3 side chain; linkers in the order of their positions; H or OH if unused. Non-standard residues stand in square brackets, D forms with d. Residues, ends and D or L forms follow the SMILES beside them. X4 = C[C@H](N[*:1])C(=O)C(C)(C)C(=O)[*:2]; Hmpa(2S,3S) = CC[C@H](C)[C@H](O)C(=O)O; NMeY = CN[C@@H](Cc1ccc(O)cc1)C(=O)O; NMeL = CN[C@@H](CC(C)C)C(=O)O; NMeV = CN[C@H](C(=O)O)C(C)C; βAla = NCCC(=O)O

{"compound": "CC(=O)OC1C=C(C=O)C(O)(C=O)C2(C)CCCC(C)(C)C12 (stereo not drawn)", "measurement.label": "GI50", "reading": "4.54 µM (inactive)"}
{"compound": "CC(=O)C1C(=O)C(=O)N(c2ccc([N+](=O)[O-])cc2Cl)C1=O (stereo not drawn)", "measurement.label": "GI50", "reading": "> 100 µM (inactive)"}

# context switch: different compound, same GI50
Challenge: For the compound CC[C@H](C)[C@@H]1OC(=O)CCNC(=O)[C@@H](C)NC(=O)C(C)(C)C(=O)[C@H](C)NC(=O)[C@H](Cc2ccc(OC)cc2)N(C)C(=O)[C@H](C(C)C)N(C)C(=O)CNC(=O)[C@H](CC(C)C)N(C)C(=O)CNC1=O (cyclo(G[NMeL]G[NMeV][NMeY](Me)[X4][dA][βAla][Hmpa(2S,3S)])) , what GI50 is on record?
Response given: 0.37 µM (active)

====

Recorded GI50 for the following molecules
Tested on: OVCAR-5
Assay: NCI tumour cell line growth inhibition, 48 h
Active and inactive are the calls of the source. Cut-off read from the data, not from the text of the source: active = GI50 up to about 1.1 µM and inactive = higher. Where a SMILES comes first, the peptide text is derived from it. The star is where a group is joined. OSu = O=C1CCC(=O)N1O*; OBn = c1ccc(CO*)cc1; Bn = c1ccc(C*)cc1

{"molecule": "OC(Cc1ccc2ccccc2n1)(C(F)(F)F)C(F)(F)F", "measurement.label": "GI50", "reading": "> 10 µM (inactive)"}
{"molecule": "O=[N+]([O-])c1cc(/C=N\\NS(=O)(=O)c2ccc(Cl)cc2)c(O)c([N+](=O)[O-])c1", "measurement.label": "GI50", "reading": "> 100 µM (inactive)"}
{"molecule": "COc1cc(C(=O)Oc2c(C#N)sc3c2c(=O)n(-c2ccccc2)c(=S)n3-c2ccccc2)cc(OC)c1OC", "measurement.label": "GI50", "reading": "17.6 µM (inactive)"}

Challenge: Look up GI50 with OVCAR-5 for this molecule: CC(C)CC(NC(=O)C(N)CCC(=O)OCc1ccccc1)C(=O)NC(COCc1ccccc1)C(=O)NC(Cc1ccccc1)C(=O)ON1C(=O)CCC1=O (stereo not drawn) (H-E(OBn)LS(Bn)F-OSu; configuration not given here)
Response given: 28.8 µM (inactive)
